- TESTED SYSTEM: T1, SNTB1, Q13884
- T1 sequence (Q13884 107-205, limits assumed, looked up): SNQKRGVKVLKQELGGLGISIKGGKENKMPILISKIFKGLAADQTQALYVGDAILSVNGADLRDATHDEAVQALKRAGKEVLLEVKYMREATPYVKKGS
- ASSAY EXPLANATION: holdup assay
- Design: key: below the threshold = too weak to quantify, mostly under pKd 3.1 to 4
- STATED CONDITIONS: plain residues with an end cap or a label only (N-terminal biotin on a linker: ado-ado)
Rule: yes for pKd not less than 4, no for anything less.

# count of solved cases: 6
INSERT INTO assay_data (binder, label) VALUES
  ('TKEIPNCTSV [SORCS3, Q9UPU3]', 'yes'),
  ('PLATCDETSI [SEMA4F, O95754]', 'yes'),
  ('QKNKDREYYV [NRXN3, Q9HDB5]', 'no'),
  ('WAKEKQHTRL [SLC17A1, Q14916]', 'no'),
  ('TKDKVQETQI [LRRC4, Q9HBW1]', 'yes'),
  ('THREVKFTSL [CD46, P15529]', 'yes');

*Q* Check if pKd >= 4 (inclusive). Item: GTMFLRETSL [GUCY1A2, P33402]
*A* yes
